Tested on: KM12 colon
Assay: NCI-60 one-dose screen, 48 h (100 = growth as untreated, 0 = no growth, -100 = all killed)
Conditions: 10 µM unless noted
Compounds without any hit were thinned out: in the full panel of roughly 83,000, 20% have a hit.
ASSAY READOUT: growth (%)
The response must be a number in % with no trailing unit.

Below are worked cases with known answers.
1) CCN(CC)CCCC(C)NC(=S)N/N=C(\C)c1ccccn1 (configuration not stated) : 36.4
2) Cc1cc(CC(=O)NCCO)n(CCO)c(=O)c1 : 107
3) CN1C(=O)NC(c2ccc(Cl)cc2)(c2ccc(Cl)cc2)C1=O : 87.9
4) O=S(Cc1ccccc1)/C(=C/NC(=S)Nc1ccccc1)c1ccccc1 (configuration not stated) : 99
5) O=[N+]([O-])c1ccc(-c2nc(N(CCO)CCO)c3ccccc3n2)o1 : -29.1

**Q:** Which value of growth has been reported for `N#C/C(=C\c1ccc(C#N)cc1)C(=O)c1ccccc1` in the records?
**A:** 107

**Q:** Lookup `C=C(C)COc1ccc(C(C)(C)C)cc1`
**A:** 103

**Q:** Lookup `Cc1ccc(S(N)(=O)=O)cc1Cl`
**A:** 112

**Q:** Lookup `CN(C(=S)S(=O)(=O)C12CC3CC(CC(C3)C1)C2)c1ccccc1`
**A:** 109

**Q:** Lookup O=C(O)C1CCCN1C(=O)OCc1ccccc1 (configuration not stated)
**A:** 113

**Q:** Lookup `S=C(Sc1ccc(Cl)cc1)Sc1ccc(Cl)cc1`
**A:** 41

**Q:** Lookup CC(=O)C1C(=O)C(=O)N(c2cccc([N+](=O)[O-])c2)C1=O (configuration not stated)
**A:** 112
